Cited source: paper PMC12040169

assay: in vitro; details: human, hela cells, % viability
viability at 28.5 h, 10 µM values, listed per item
Answer in %, number only, no unit symbol.

[
  {
    "COMPOUND": "CC(C)CN1CCC2(CC=CCN(Cc3ccc(F)cc3)C2=O)CC1 [CBK285521]",
    "viability at 28.5 h, 10 µM [%]": 116
  },
  {
    "COMPOUND": "Nc1nn2c(c1Cc1c(Cl)cccc1Cl)OCCC2 [CBK088843]",
    "viability at 28.5 h, 10 µM [%]": 92.8
  },
  {
    "COMPOUND": "CCNc1nc2ccccn2c(=O)c1C=C1SC(=S)N(CCCC(=O)O)C1=O [CBK296757]",
    "viability at 28.5 h, 10 µM [%]": 87.9
  },
  {
    "COMPOUND": "NC(CC(=O)O)c1ccc(OCCc2ccccc2)cc1 (stereo not shown) [CBK287053]",
    "viability at 28.5 h, 10 µM [%]": 91.6
  },
  {
    "COMPOUND": "OC1(Cn2cnc3ccccc32)CCN(Cc2ccc(F)cc2)CC1 [CBK284661]",
    "viability at 28.5 h, 10 µM [%]": 85.7
  },
  {
    "COMPOUND": "O=C(O)c1cc(NCc2ccccc2)ccc1N1CCOCC1 [CBK287099]",
    "viability at 28.5 h, 10 µM [%]": 101
  },
  {
    "COMPOUND": "Cc1ccc(NC(=O)c2cnc3sc(C)cn3c2=O)cc1 [CBK287711]",
    "viability at 28.5 h, 10 µM [%]": 97.8
  },
  {
    "COMPOUND": "COc1ccc(NC(=O)CSc2nc(C)c(Cc3ccc(O)cc3)[nH]2)cc1 [CBK291171]",
    "viability at 28.5 h, 10 µM [%]": 95.4
  }
]

### Prompt Query: viability at 28.5 h, 10 µM; subject: S=c1[nH]nc(CSc2nc3ccccc3[nH]2)n1-c1ccccc1 [CBK267133]
### Response 87.3

### Prompt Query: viability at 28.5 h, 10 µM; subject: COc1cc(C(=O)Nc2nc3c(s2)CC(C)CC3)cc(OC)c1OC (stereo not shown) [CBK287299]
### Response 107

###

viability at 28.5 h, 10 µM values, listed per item
experiment: in vitro; conditions: human, hela cells, % viability
Answer in %, number only, no unit symbol.

Illustrative cases are given below, each with its answer.
[
  {
    "MOLECULE": "CCOC(=O)CSc1nc(=O)cc(N)n1Cc1ccc(F)cc1",
    "UNIT SYMBOL": "%",
    "RESULT NUMBER": 91.1
  },
  {
    "MOLECULE": "CC1CCC(C(N)=O)CN1C(=O)c1cncc(Br)c1 (stereo not drawn)",
    "UNIT SYMBOL": "%",
    "RESULT NUMBER": 96.3
  },
  {
    "MOLECULE": "COc1ccc(CCNC(=O)c2ccn[nH]2)cc1OC",
    "UNIT SYMBOL": "%",
    "RESULT NUMBER": 92.2
  },
  {
    "MOLECULE": "c1cc(CCNc2cc(-c3ccc4c(c3)OCO4)ncn2)ccn1",
    "UNIT SYMBOL": "%",
    "RESULT NUMBER": 99.5
  },
  {
    "MOLECULE": "O=C(NC1CCN(CC(F)(F)F)CC1)c1cnc(-c2ccccc2)s1",
    "UNIT SYMBOL": "%",
    "RESULT NUMBER": 98.4
  }
]

### Prompt Query: viability at 28.5 h, 10 µM; subject: O=C(Nc1ccc(O)cc1)c1cnc(-c2ccc(Cl)cc2)c(-c2cccnc2)c1
### Response 94.7

### Prompt Query: viability at 28.5 h, 10 µM; subject: N#Cc1c(C(F)(F)F)cc(-c2ccncc2)nc1SCCN1CCCCCC1
### Response 85.3

### Prompt Query: viability at 28.5 h, 10 µM; subject: CCN1CC2(CCC1=O)CCN(Cc1nncn1C(C)C)CC2
### Response 107

### Prompt Query: viability at 28.5 h, 10 µM; subject: COC1C(O)C(CO)OC1n1cc(F)c(SC)nc1=O (stereo not drawn)
### Response 106

### Prompt Query: viability at 28.5 h, 10 µM; subject: NC(=O)c1c(NC(=O)Cn2ccc([N+](=O)[O-])n2)sc2c1CCCC2
### Response 113

### Prompt Query: viability at 28.5 h, 10 µM; subject: CCc1n[nH]c(C2CN(Cc3nc4c(F)cccc4[nH]3)CCO2)n1 (stereo not drawn)
### Response 90.9

### Prompt Query: viability at 28.5 h, 10 µM; subject: N#Cc1c(NC(=O)c2cc(S(=O)(=O)N3CCOCC3)c(Cl)cc2Cl)sc2c1CCCC2
### Response 95.7

### Prompt Query: viability at 28.5 h, 10 µM; subject: O=C1CSC2c3ccccc3C(=O)N2c2ccccc21 (stereo not drawn)
### Response 108

### Prompt Query: viability at 28.5 h, 10 µM; subject: O=c1oc2ccccc2c2c1nnn2CCCN1CCOCC1 [CBK261470C]
### Response 95.2

### Prompt Query: viability at 28.5 h, 10 µM; subject: CCCS(=O)(=O)n1c(=O)n(CC(=O)c2ccc(N(CC)CC)cc2)c2ccccc21
### Response 105

### Prompt Query: viability at 28.5 h, 10 µM; subject: Cc1ccc(OCCSc2nnc(N)[nH]2)cc1
### Response 98.9

### Prompt Query: viability at 28.5 h, 10 µM; subject: Cc1ccc(C2(O)CC3CCC(C2)N3C(=O)c2ccncc2)cc1 (stereo not drawn)
### Response 100

### Prompt Query: viability at 28.5 h, 10 µM; subject: Cc1nn(C)c(Cl)c1S(=O)(=O)Nc1cccc(-c2nnn[nH]2)c1
### Response 96

### Prompt Query: viability at 28.5 h, 10 µM; subject: C/C(C(=O)O)=C(/C)C(=O)N1CCC2(CC1)NCCc1c2[nH]c2ccc(C)cc12
### Response 100

### Prompt Query: viability at 28.5 h, 10 µM; subject: Cn1nccc1-c1cc(C(=O)NC2(C)CCC2)c2ccccc2n1
### Response 92.7

### Prompt Query: viability at 28.5 h, 10 µM; subject: COc1ccc(/C=C/C(=O)O)cc1S(=O)(=O)N1CCCC1
### Response 93.5

### Prompt Query: viability at 28.5 h, 10 µM; subject: Cc1ccc(S(=O)(=O)Nc2ccc(Nc3cc(-c4ccsc4)ncn3)cc2)cc1
### Response 96.5

### Prompt Query: viability at 28.5 h, 10 µM; subject: CCCC(=O)N1C2CCC1c1cnc3cc(-c4ccco4)nn3c1C2 (stereo not drawn)
### Response 96.6

### Prompt Query: viability at 28.5 h, 10 µM; subject: Cc1nc(CC(=O)NCc2cccnc2N2CCOCC2)cs1
### Response 98.7

### Prompt Query: viability at 28.5 h, 10 µM; subject: CCN1CCCC1CNc1c(Cl)c(Cl)nc2c1c(=O)n(C)c(=O)n2C (stereo not drawn)
### Response 97.2

### Prompt Query: viability at 28.5 h, 10 µM; subject: COc1ccccc1CC(CC(=O)O)C(=O)O (stereo not drawn)
### Response 91.6

### Prompt Query: viability at 28.5 h, 10 µM; subject: CC(=O)Nc1ccc(S(=O)(=O)N2CCN(C(=O)c3cccnc3)CC2)cc1
### Response 96.5
